biological target: Voltage-gated inwardly rectifying potassium channel KCNH2 (Homo sapiens); experiment: Inhibition of human ERG expressed by patch clam electrophysiology assay
Sequence (Q12809 whole entry): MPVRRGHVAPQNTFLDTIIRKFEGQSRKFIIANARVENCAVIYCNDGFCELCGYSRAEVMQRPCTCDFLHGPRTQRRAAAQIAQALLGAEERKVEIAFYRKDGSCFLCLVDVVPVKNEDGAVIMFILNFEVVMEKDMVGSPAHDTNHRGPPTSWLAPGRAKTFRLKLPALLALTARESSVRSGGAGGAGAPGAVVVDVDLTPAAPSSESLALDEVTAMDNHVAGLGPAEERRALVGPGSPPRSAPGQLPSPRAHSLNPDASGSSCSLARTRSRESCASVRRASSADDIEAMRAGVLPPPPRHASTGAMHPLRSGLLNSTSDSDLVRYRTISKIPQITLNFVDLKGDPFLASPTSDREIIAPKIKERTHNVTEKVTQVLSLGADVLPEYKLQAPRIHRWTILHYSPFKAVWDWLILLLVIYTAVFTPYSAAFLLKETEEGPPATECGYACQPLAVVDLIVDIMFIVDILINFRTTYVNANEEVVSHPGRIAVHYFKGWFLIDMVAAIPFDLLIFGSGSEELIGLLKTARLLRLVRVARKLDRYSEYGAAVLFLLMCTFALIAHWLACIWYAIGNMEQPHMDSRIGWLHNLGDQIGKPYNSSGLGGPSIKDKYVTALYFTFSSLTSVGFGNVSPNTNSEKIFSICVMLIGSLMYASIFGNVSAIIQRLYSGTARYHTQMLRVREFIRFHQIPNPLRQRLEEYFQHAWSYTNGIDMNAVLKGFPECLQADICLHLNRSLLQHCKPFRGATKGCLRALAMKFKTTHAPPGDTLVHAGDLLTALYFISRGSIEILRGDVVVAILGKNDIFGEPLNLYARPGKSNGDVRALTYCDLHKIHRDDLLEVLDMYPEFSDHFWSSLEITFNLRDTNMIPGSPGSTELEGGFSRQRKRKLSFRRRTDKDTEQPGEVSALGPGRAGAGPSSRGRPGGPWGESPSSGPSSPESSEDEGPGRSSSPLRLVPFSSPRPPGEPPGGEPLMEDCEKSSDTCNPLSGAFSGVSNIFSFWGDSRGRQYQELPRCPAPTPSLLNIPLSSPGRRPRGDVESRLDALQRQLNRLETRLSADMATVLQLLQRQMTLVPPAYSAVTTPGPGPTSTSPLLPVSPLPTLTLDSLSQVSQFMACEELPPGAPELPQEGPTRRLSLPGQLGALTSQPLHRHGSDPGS
observable: IC50 (nM)
Enter your answer as a number in nM; do not include the unit.

Return reported IC50; argument: `Cc1cccc(Nc2nc(N3CCNCC3)nc3c(C)nn(CCOCC(F)(F)F)c23)n1`
560

====

assay: Selectivity ratio of IC50 for PDE11 to IC50 for PDE5
Mark TRUE for reported Ratio IC50 of 300 or greater; mark FALSE for anything smaller.

CCc1nn(CCOCC(F)(F)F)c2c(Nc3cc(C)ccn3)nc(N3CCNCC3)nc12    FALSE
CCc1nn(CCOC(C)C)c2c(Nc3ccccn3)nc(N3CCNCC3)nc12    FALSE
Cc1ccnc(Nc2nc(N3CCNCC3)nc3c(C)nn(CCOCC(F)(F)F)c23)c1    FALSE
CCc1nn(CCOCC(F)(F)F)c2c(Nc3ccncn3)nc(N3CCOCC3)nc12    TRUE
CCc1nn(CCOCC(F)(F)F)c2c(Nc3ccncn3)nc(N(C)C3CCN(C)CC3)nc12    TRUE

Could you please find out whether `CCc1nn(CCOCC(F)(F)F)c2c(Nc3ccncn3)nc(N3CCCN(C)CC3)nc12` has Ratio IC50 that meets 300 or exceeds it?
FALSE

Query `CCc1nn(CCOCC(F)(F)F)c2c(Nc3ccncn3)nc(N3CCCNCC3)nc12` next
TRUE

Query `CCc1nn(CCOCC(F)(F)F)c2c(Nc3ccccn3)nc(N3CCNCC3)nc12` next
TRUE

Query `Cc1nn(CCOCC(F)(F)F)c2c(Nc3ccncn3)nc(N3CCCNCC3)nc12` next
FALSE

====

assay: Volume of distribution at steady state in Beagle dog at 0.2 mg/kg, iv; assay type: ADME, organism-based, Canis lupus familiaris; parameters: dose 0.2 mg/kg, route intravenous; details: in vivo, read-out: Vdss
observable: Vd (L/kg)
Enter your answer as a number in L/kg; do not include the unit.

Return reported Vd; argument: `CCc1nn(CCOCC(F)(F)F)c2c(Nc3ccncn3)nc(N3CCN[C@H](C)C3)nc12`
7.8
